Origin of values: patent US9681664B2

Exercise: state measured melting point for each of the compounds provided.

According to the records, this compound `COc1ccnc(C(=O)N[C@H]2CCC[C@H](OCC(C)C)[C@@H](OCCCC(F)(F)F)[C@H](C)OC2=O)c1O` displays melting point of 108 to 114 °C

The compound listed as `CC(C)CO[C@H]1CCC[C@H](N)C(=O)O[C@@H](C)[C@@H]1OC/C=C/C(F)(F)F.Cl` shows melting point equal to 236 to 240 °C

Entry `COc1ccnc(C(=O)N[C@H]2CCC[C@H](Oc3ccccc3)[C@@H](OC3CCCC3)[C@H](C)OC2=O)c1OCOC(C)=O` — recorded melting point = 148 to 149 °C

Summary for this compound, `COc1ccnc(C(=O)N[C@H]2CCC[C@H](Oc3ccccc3)[C@@H](OCC(C)C)[C@H](C)OC2=O)c1OCOC(C)=O` : melting point is 135 to 137 °C

Memo: `COc1ccnc(C(=O)N[C@H]2CCC[C@H](OCC(C)C)[C@@H](Oc3ccc(F)cc3)[C@H](C)OC2=O)c1O` , reported melting point: 65 to 67 °C

The compound identified as `COc1ccc(O[C@H]2CCC[C@H](N)C(=O)O[C@@H](C)[C@@H]2OCC(C)C)cc1.Cl` registered its melting point at 198 to 200 °C

Per the record, `CC(C)CO[C@H]1CCC[C@H](N)C(=O)O[C@@H](C)[C@@H]1OC(=O)C1CC1.Cl` has melting point of 231 to 235 °C

Measured melting point of `COc1ccnc(C(=O)N[C@H]2CCC[C@H](OC3CCCC3)[C@@H](OCCCC(F)(F)F)[C@H](C)OC2=O)c1O` : 43 to 48 °C

The compound listed as `CC(C)CO[C@H]1[C@H](C)OC(=O)[C@@H](N)CCC[C@@H]1OCC(C)C.Cl` has a reported melting point of 188 to 230 °C

compound `COc1ccnc(C(=O)N[C@H]2CCC[C@H](OC3CCCC3)[C@@H](OCC(C)C)[C@H](C)OC2=O)c1O` , melting point observed: 99 to 100 °C

Looking up `COc1ccnc(C(=O)N[C@H]2CCC[C@H](OCc3ccccc3)[C@@H](OCc3ccccc3)[C@H](C)OC2=O)c1OCOC(C)=O` , I found its melting point recorded as 42 to 52 °C

Measured melting point, `COc1ccnc(C(=O)N[C@H]2CCC[C@H](Oc3ccc(F)cc3)[C@@H](Oc3ccc(F)cc3)[C@H](C)OC2=O)c1O` : 89 to 91 °C

Measured melting point of `CCCO[C@H]1[C@H](C)OC(=O)[C@@H](NC(=O)c2nccc(OC)c2O)CCC[C@@H]1OCC(C)C` : 109 to 111 °C

----------
Exercise: for every item that follows, state its recorded pest or weed control at 121.5 g/ha.
System: Mycosphaerella graminicola; Anamorph: Septoria tritici
ASSAY INFO: Leaf blotch of wheat (SEPTTR) disease control on wheat seedlings
Assay type: in vivo
STUDY CONDITIONS: Zymoseptoria tritici, 24 h; Wheat Leaf Blotch; 1 Day Protectant; low volume application, 121.5 g/H; read-out: Disease Control SEPTTR 1 DP 121.5 g/H

Record for `COc1ccnc(C(=O)N[C@H]2CCC[C@H](Oc3ccccc3)[C@@H](OC(=O)C3CCCC3)[C@H](C)OC2=O)c1OC(C)=O` under target or system Mycosphaerella graminicola; Anamorph: Septoria tritici: pest or weed control at 121.5 g/ha reported as 80 to 100%

Hey, Mycosphaerella graminicola; Anamorph: Septoria tritici data for `COCCC(=O)Oc1c(OC)ccnc1C(=O)N[C@H]1CCC[C@H](Oc2ccccc2)[C@@H](OC)[C@H](C)OC1=O` : pest or weed control at 121.5 g/ha came out at 0 to 80%

Recorded pest or weed control at 121.5 g/ha for `COCCC(=O)Oc1c(OC)ccnc1C(=O)N[C@H]1CCC[C@H](OCC(C)C)[C@@H](OC)[C@H](C)OC1=O` on Mycosphaerella graminicola; Anamorph: Septoria tritici was < 0%

# value of pest or weed control at 121.5 g/ha, Mycosphaerella graminicola; Anamorph: Septoria tritici, item `COc1ccnc(C(=O)N[C@H]2CCC[C@H](Oc3ccccc3)[C@@H](OC(=O)C3CCCC3)[C@H](C)OC2=O)c1OCOC(C)=O` = 80 to 100%

Here `CCCO[C@H]1CCC[C@H](NC(=O)c2nccc(OC)c2OC(C)=O)C(=O)O[C@@H](C)[C@@H]1Oc1ccc(F)cc1` was tested on Mycosphaerella graminicola; Anamorph: Septoria tritici, and its pest or weed control at 121.5 g/ha came to 80 to 100%

Mycosphaerella graminicola; Anamorph: Septoria tritici data for `COc1ccnc(C(=O)N[C@H]2CCC[C@H](Oc3ccccc3)[C@@H](OC(=O)C3CC3)[C@H](C)OC2=O)c1OCOC(C)=O` ; its pest or weed control at 121.5 g/ha: 80 to 100%
